- assay_info: Bidirectional Caco-2 permeability assay
- Format: in vitro ADME
- reported_conditions: human, Caco-2
observable: efflux ratio at 90 min
Answer using only a numeral; do not append any unit.

| compound | assay_result |
| --- | --- |
| CCCCC(=O)Nc1ncnn2c([C@]3(C#N)O[C@H](COC(=O)CC4CCCC4)[C@@H](OC(=O)[C@@H](N)C(C)(C)C)[C@H]3O)ccc12 [Compound 54] | 1.6 |
| COC(C)(C)C(=O)Nc1ncnn2c([C@]3(C#N)O[C@H](COC(=O)CC4CCCCCC4)[C@@H](OC(=O)[C@H](N)C(C)(C)C)[C@H]3O)ccc12 [Compound 70] | 1.03 |
| CC[C@H](C)C(=O)Nc1ncnn2c([C@]3(C#N)O[C@H](COC(=O)CC4CCCCC4)[C@@H](OC(=O)[C@@H](N)C(C)(C)C)[C@H]3O)ccc12 [Compound 13] | 9.68 |

For the next question, use this compound.
query: Give the measured efflux ratio at 90 min for CCCCOC(C)(C)C(=O)Nc1ncnn2c([C@]3(C#N)O[C@H](COC(=O)CC4CCCCC4)[C@@H](OC(=O)[C@H](N)C(C)(C)C)[C@H]3O)ccc12 [Compound 73]
result: 2.23

###

- assay_info: Bidirectional Caco-2 permeability assay
- Assay type: in vitro ADME
- reported_conditions: human, Caco-2
Papp A→B at 90 min values, listed per item

| molecule | Papp A→B at 90 min |
| --- | --- |
| CCCCOC(C)(C)C(=O)Nc1ncnn2c([C@]3(C#N)O[C@H](COC(=O)CC4CCCCC4)[C@@H](OC(=O)[C@@H](N)C(C)(C)C)[C@H]3O)ccc12 | 0.41 ×10⁻⁶ cm/s |
| CCC(CC)C(=O)Nc1ncnn2c([C@]3(C#N)O[C@H](COC(=O)CC4CCCCCC4)[C@@H](OC(=O)[C@H](N)C(C)(C)C)[C@H]3O)ccc12 | 1 ×10⁻⁶ cm/s |
| CCCCOC(C)(C)C(=O)Nc1ncnn2c([C@]3(C#N)O[C@H](COC(=O)CC4CCCC4)[C@@H](OC(=O)[C@@H](N)C(C)(C)C)[C@H]3O)ccc12 | 0.67 ×10⁻⁶ cm/s |
| CCOC(C)(C)C(=O)Nc1ncnn2c([C@]3(C#N)O[C@H](COC(=O)CC4CCCCCC4)[C@@H](OC(=O)[C@@H](N)C(C)(C)C)[C@H]3O)ccc12 | 4.78 ×10⁻⁶ cm/s |

Here is another molecule to look at.
query: Consider the molecule "CCC(CC)C(=O)Nc1ncnn2c([C@]3(C#N)O[C@H](COC(=O)CC4CCCCC4)[C@@H](OC(=O)[C@H](N)C(C)(C)C)[C@H]3O)ccc12" and give its recorded Papp A→B at 90 min.
result: 3.19 ×10⁻⁶ cm/s

###

- assay_info: Bidirectional Caco-2 permeability assay
- Assay type: in vitro ADME
- reported_conditions: human, Caco-2
Entries and their Papp A→B at 90 min
Write the number in ×10⁻⁶ cm/s without appending the unit.

Here are 2 molecules together with their reported answers.
| molecule | unit_name | Papp A→B at 90 min |
| --- | --- | --- |
| CCC(CC)C(=O)Nc1ncnn2c([C@]3(C#N)O[C@H](COC(=O)CC4CCC4)[C@@H](OC(=O)[C@@H](N)C(C)(C)C)[C@H]3O)ccc12 | ×10⁻⁶ cm/s | 8.66 |
| CC[C@@H](C)C(=O)Nc1ncnn2c([C@]3(C#N)O[C@H](COC(=O)CC4CCCCC4)[C@@H](OC(=O)[C@@H](N)C(C)(C)C)[C@H]3O)ccc12 | ×10⁻⁶ cm/s | 3.48 |

query: For "CCCCCC(=O)Nc1ncnn2c([C@]3(C#N)O[C@H](COC(=O)CC4CCC4)[C@@H](OC(=O)[C@@H](N)C(C)(C)C)[C@H]3O)ccc12" , write its Papp A→B at 90 min.
result: 2.02

query: State its Papp A→B at 90 min: "CCC(=O)O[C@H]1[C@@H](O)[C@](C#N)(c2ccc3c(NC(=O)OCOC(=O)C(C)(C)C)ncnn23)O[C@@H]1COC(=O)[C@@H](N)C(C)(C)C"
result: 0.13

query: Let me know recorded Papp A→B at 90 min for "CC(=O)OCOC(=O)Nc1ncnn2c([C@]3(C#N)O[C@H](COC(=O)CC4CCCCC4)[C@@H](OC(=O)[C@@H](N)C(C)(C)C)[C@H]3O)ccc12" , thanks.
result: 1.45

query: Retrieve Papp A→B at 90 min measured for "CCCCC(=O)Nc1ncnn2c([C@]3(C#N)O[C@H](COC(=O)CC4CCC4)[C@@H](OC(=O)[C@@H](N)C(C)(C)C)[C@H]3O)ccc12" and print it.
result: 4.57

query: Quick one: give measured Papp A→B at 90 min for "CCC(CC)C(=O)Nc1ncnn2c([C@]3(C#N)O[C@H](COC(=O)CC4CCCCC4)[C@@H](OC(=O)[C@@H](N)C(C)(C)C)[C@H]3O)ccc12"
result: 4.08

query: Look up Papp A→B at 90 min of "COC(C)(C)C(=O)Nc1ncnn2c([C@]3(C#N)O[C@H](COC(=O)CC4CCCCCC4)[C@@H](OC(=O)[C@@H](N)C(C)(C)C)[C@H]3O)ccc12" and report it.
result: 4.01

query: Give a short answer stating reported Papp A→B at 90 min for "CCOC(C)(C)C(=O)Nc1ncnn2c([C@]3(C#N)O[C@H](COC(=O)CC4CCCC4)[C@@H](OC(=O)[C@@H](N)C(C)(C)C)[C@H]3O)ccc12" .
result: 5.1

query: For "CCOC(C)(C)C(=O)Nc1ncnn2c([C@]3(C#N)O[C@H](COC(=O)CC4CCCCC4)[C@@H](OC(=O)[C@@H](N)C(C)(C)C)[C@H]3O)ccc12" , write its Papp A→B at 90 min.
result: 7.82

query: Note Papp A→B at 90 min for the molecule shown: "CCC(CC)C(=O)Nc1ncnn2c([C@]3(C#N)O[C@H](COC(=O)CC4CCCCCC4)[C@@H](OC(=O)[C@@H](N)C(C)(C)C)[C@H]3O)ccc12"
result: 1.4

###

- assay_info: Bidirectional Caco-2 permeability assay
- Assay type: in vitro ADME
- reported_conditions: human, Caco-2
# note: boundary value 3 ×10⁻⁶ cm/s maps to 0.0; Papp A→B at 90 min below it maps to 1.0

Sample answers from the record:
| compound | group |
| --- | --- |
| COC(C)(C)C(=O)Nc1ncnn2c([C@]3(C#N)O[C@H](COC(=O)CC4CCCC4)[C@@H](OC(=O)[C@@H](N)C(C)(C)C)[C@H]3O)ccc12 [Compound 57] | 0.0 |
| CC[C@H](C)C(=O)Nc1ncnn2c([C@]3(C#N)O[C@H](COC(=O)CC4CCCCC4)[C@@H](OC(=O)[C@@H](N)C(C)(C)C)[C@H]3O)ccc12 [Compound 13] | 0.0 |
| CC(=O)Nc1ncnn2c([C@]3(C#N)O[C@H](COC(=O)[C@@H](N)C(C)(C)C)[C@@H](OC(=O)CC4CCCCC4)[C@H]3O)ccc12 [Compound 33] | 0.0 |
| CC(=O)OCOC(=O)Nc1ncnn2c([C@]3(C#N)O[C@H](COC(=O)[C@@H](N)C(C)(C)C)[C@@H](OC(=O)CC4CCCCC4)[C@H]3O)ccc12 [Compound 36] | 1.0 |
| CC(C)[C@H](C)C(=O)Nc1ncnn2c([C@]3(C#N)O[C@H](COC(=O)CC4CCCCC4)[C@@H](OC(=O)[C@@H](N)C(C)(C)C)[C@H]3O)ccc12 [Compound 15] | 1.0 |
| CC(C)(C)[C@H](N)C(=O)OC[C@H]1O[C@@](C#N)(c2ccc3c(NC(=O)CC4CCCCC4)ncnn23)[C@H](O)[C@@H]1O [Compound 39] | 1.0 |
| CCCC(=O)Nc1ncnn2c([C@]3(C#N)O[C@H](COC(=O)CC4CCCCC4)[C@@H](OC(=O)[C@@H](N)C(C)(C)C)[C@H]3O)ccc12 [Compound 1] | 0.0 |
| CC(C)(C)[C@H](N)C(=O)OC[C@H]1O[C@@](C#N)(c2ccc3c(N)ncnn23)[C@H](O)[C@@H]1OC(=O)CC1CCCCC1 [Compound 32] | 0.0 |

query: Is it true that Papp A→B at 90 min reported for CCCCCCOC(=O)Nc1ncnn2c([C@]3(C#N)O[C@H](COC(=O)[C@@H](N)C(C)(C)C)[C@@H](OC(=O)CC)[C@H]3O)ccc12 [Compound 42] is less than 3 ×10⁻⁶ cm/s?
result: 0.0

query: Threshold test, Papp A→B at 90 min < 3 ×10⁻⁶ cm/s: CCOC(C)(C)C(=O)Nc1ncnn2c([C@]3(C#N)O[C@H](COC(=O)CC4CCC4)[C@@H](OC(=O)[C@@H](N)C(C)(C)C)[C@H]3O)ccc12 [Compound 49]
result: 0.0

query: In plain terms, does COC(C)(C)C(=O)Nc1ncnn2c([C@]3(C#N)O[C@H](COC(=O)CC4CCCCC4)[C@@H](OC(=O)[C@@H](N)C(C)(C)C)[C@H]3O)ccc12 [Compound 3] come in under 3 ×10⁻⁶ cm/s for Papp A→B at 90 min?
result: 0.0
